# Tested on: neurons from hippocampi of E18 rat embryos
# test_name: Neurite growth length (% NTL) in cultured E18 rat hippocampal neurons, 9-point dose response, 48 hours
# Assay type: cell-based
# experimental_parameters: Rattus norvegicus, Neuron, 48 h, 10 μM
assay_readout: activity at 10 µM (%)
Write down the numeric answer in % and omit the unit.

Consider the reported activity at 10 µM for these molecules:
Qu. // query activity at 10 µM value for entry COc1ccc(O)c(C(=O)c2ccc(C(=O)NCCNC(=O)c3ccncc3)cc2)c1F
Ans. 141

Qu. // query activity at 10 µM value for entry Cc1cccc(C(=O)c2ccc(C(=O)N[C@@H]3CNC[C@H]3NC(=O)c3ccnc(N)n3)cc2)c1O
Ans. 137

Qu. // query activity at 10 µM value for entry Cc1ccc(O)c(C(=O)c2ccc(C(=O)N[C@@H]3CNC[C@H]3NC(=O)c3ccncc3)cc2)c1
Ans. 410

Qu. // query activity at 10 µM value for entry O=C(N[C@@H]1CNC[C@H]1NC(=O)c1ccc(C(=O)c2ccc(Cl)cc2O)cc1)c1ccncc1
Ans. 107

Qu. // query activity at 10 µM value for entry COc1ccc(C(=O)c2ccc(C(=O)N[C@@H]3CNC[C@H]3NC(=O)c3ccncc3)cc2)c(O)c1
Ans. 123

Qu. // query activity at 10 µM value for entry COc1ccc(O)c(C(=O)c2ccc(C(=O)N[C@@H]3CNC[C@H]3NC(=O)c3ccnc4[nH]cnc34)cc2)c1F
Ans. 461

Next molecule, activity at 10 µM to be filled in.
Qu. // query activity at 10 µM value for entry COc1ccc(O)c(C(=O)c2ccc(C(=O)N[C@@H]3CNC[C@H]3NC(=O)c3ccnc4[nH]ccc34)cc2)c1F
Ans. 375

###

Quick reference: activity at 10 µM of the listed items.
# Test system: neurons from hippocampi of E18 rat embryos
# test_name: Neurite growth length (% NTL) in cultured E18 rat hippocampal neurons, 9-point dose response, 48 hours
# Format: cell-based
# experimental_parameters: Rattus norvegicus, Neuron, 48 h, 10 μM
Write down the numeric answer in % and omit the unit.

Qu. // query activity at 10 µM value for entry Nc1nccc(C(=O)N[C@@H]2CNC[C@H]2NC(=O)c2ccc(C(=O)c3ccccc3O)c(Cl)c2)n1
Ans. 145

Others:
Qu. // query activity at 10 µM value for entry COc1ccc(O)c(C(=O)c2ccc(C(=O)N[C@@H]3CNC[C@H]3NC(=O)c3ccc4c(c3)CC(=O)N4)cc2)c1F
Ans. 96.7

Qu. // query activity at 10 µM value for entry O=C(N[C@@H]1CNC[C@H]1NC(=O)c1ccncc1)c1ccccc1 (stereo in doubt)
Ans. 93.8

Qu. // query activity at 10 µM value for entry O=C(N[C@@H]1CNC[C@H]1NC(=O)c1ccc2[nH]ncc2c1)c1ccc(C(=O)c2c(O)cccc2F)cc1
Ans. 322

Qu. // query activity at 10 µM value for entry COc1ccc(OC)c(C(=O)c2ccc(C(=O)N[C@@H]3CCCCC[C@H]3NC(=O)c3ccncc3)cc2)c1F
Ans. 131

Qu. // query activity at 10 µM value for entry COc1ccc(O)c(C(=O)c2ccc(C(=O)N[C@@H]3CNC[C@H]3NC(=O)c3ccnc(O)c3)cc2)c1F
Ans. 106

Qu. // query activity at 10 µM value for entry COc1ccc(O)c(C(=O)c2ccc(C(=O)N[C@@H]3c4ccccc4C[C@H]3NC(=O)c3ccncc3)cc2)c1F
Ans. 154

###

# Test system: neurons from hippocampi of E18 rat embryos
# test_name: Neurite growth length (% NTL) in cultured E18 rat hippocampal neurons, 9-point dose response, 48 hours
# Assay type: cell-based
# experimental_parameters: Rattus norvegicus, Neuron, 48 h, 10 μM
Quick reference: activity at 10 µM of the listed items.
Write down the numeric answer in % and omit the unit.

Consider the reported activity at 10 µM for these compounds:
Qu. // query activity at 10 µM value for entry COc1ccc(O)c(C(=O)c2ccc(C(=O)N[C@@H]3CNC[C@H]3NC(=O)c3cn[nH]c3)cc2)c1F
Ans. 155

Qu. // query activity at 10 µM value for entry COc1ccc(O)c(C(=O)c2ccc(C(=O)N[C@@H]3CNC[C@H]3NC(=O)c3ccncc3)cc2)c1
Ans. 469

Qu. // query activity at 10 µM value for entry COc1ccc(O)c(C(=O)c2ccc(C(=O)N[C@@H]3CNC[C@H]3NC(=O)c3ccnc(N)c3)cc2)c1F
Ans. 151

Next compound, activity at 10 µM to be filled in.
Qu. // query activity at 10 µM value for entry COc1ccc(O)c(C(=O)c2ccc(C(=O)N[C@@H]3CCC[C@H]3NC(=O)c3ccncc3)cc2)c1F
Ans. 131

###

# Test system: neurons from hippocampi of E18 rat embryos
# test_name: Neurite growth length (% NTL) in cultured E18 rat hippocampal neurons, 9-point dose response, 48 hours
# Type: cell-based
# experimental_parameters: Rattus norvegicus, Neuron, 48 h, 10 μM
assay_readout: activity at 10 µM (%)
Write down the numeric answer in % and omit the unit.

Qu. // query activity at 10 µM value for entry COc1ccc(O)c(C(=O)c2ccc(C(=O)N[C@@H]3CNC[C@H]3NC(=O)c3ccc4[nH]ncc4c3)cc2)c1F [Example A42]
Ans. 431

Qu. // query activity at 10 µM value for entry Nc1nccc(C(=O)N[C@@H]2CNC[C@H]2NC(=O)c2ccc(C(=O)c3cccc(Cl)c3O)cc2)n1 [Example A70]
Ans. 135

Qu. // query activity at 10 µM value for entry COc1ccc(O)c(Cc2ccc(C(=O)N[C@@H]3CNC[C@H]3NC(=O)c3ccnc(N)n3)cc2)c1F [Example A45]
Ans. 97.2

Qu. // query activity at 10 µM value for entry Cc1cc(C(=O)N[C@@H]2CNC[C@H]2NC(=O)c2ccncc2)ccc1C(=O)c1ccccc1O [Example A64]
Ans. 121

Qu. // query activity at 10 µM value for entry COc1ccc(O)c(C(=O)c2ccc(C(=O)N[C@@H]3CNC[C@H]3NC(=O)c3cccnc3)cc2)c1F [Example A38]
Ans. 100

Others:
Qu. // query activity at 10 µM value for entry COc1ccc(OC)c(C(=O)c2ccc(C(=O)N[C@@H]3CCC[C@H]3NC(=O)c3ccncc3)cc2)c1F [Example A17]
Ans. 121

Qu. // query activity at 10 µM value for entry COc1ccc(O)c(C(=O)c2ccc(C(=O)N[C@@H]3CNC[C@H]3NC(=O)Cc3cccnc3)cc2)c1F [Example A46]
Ans. 100

###

# System: neurons from hippocampi of E18 rat embryos
# test_name: Neurite growth length (% NTL) in cultured E18 rat hippocampal neurons, 9-point dose response, 48 hours
# Assay type: cell-based
# experimental_parameters: Rattus norvegicus, Neuron, 48 h, 10 μM
assay_readout: activity at 10 µM (%)
Write down the numeric answer in % and omit the unit.

Qu. // query activity at 10 µM value for entry COc1ccc(O)c(C(=O)c2ccc(C(=O)N3CCN(C(=O)c4ccncc4)CC3)cc2)c1F
Ans. 89.6

Qu. // query activity at 10 µM value for entry O=C(N[C@@H]1CCCC[C@H]1NC(=O)c1ccc(C(=O)c2ccccc2)cc1)c1ccncc1
Ans. 87.4

Qu. // query activity at 10 µM value for entry O=C(N[C@@H]1CCC[C@H]1NC(=O)c1ccc(C(=O)c2ccccc2)cc1)c1ccncc1
Ans. 122

Qu. // query activity at 10 µM value for entry COc1ccc(OC)c(C(=O)c2ccc(C(=O)N3CCN(C(=O)c4ccncc4)CC3)cc2)c1F
Ans. 93.2

Qu. // query activity at 10 µM value for entry COc1ccc(OC)c(C(=O)c2ccc(C(=O)O[C@@H]3CN(C)C[C@H]3NC(=O)c3ccncc3)cc2)c1F
Ans. 137

Qu. // query activity at 10 µM value for entry O=C(N[C@@H]1CNC[C@H]1NC(=O)c1ccc(C(=O)c2ccccc2O)c(Cl)c1)c1ccncc1
Ans. 120

Qu. // query activity at 10 µM value for entry COc1ccc(OC)c(C(=O)c2ccc(C(=O)NCCNC(=O)c3ccncc3)cc2)c1F
Ans. 97.8

###

# Test system: Primary Neurons
# test_name: HCS neurite outgrowth assay (High Content Screening with Primary Neurons)
# Type: cell-based
# experimental_parameters: Primary neuron
assay_readout: pEC50
Scale note: pEC50 = -log10(concentration in M).

Qu. // query pEC50 value for entry O=C(N[C@@H]1CNC[C@H]1NC(=O)c1ccc(C(=O)c2cc(Cl)ccc2O)cc1)c1ccncc1 [Example A85]
Ans. 5.42

Qu. // query pEC50 value for entry CC(C)(C)Oc1ccc(O)c(C(=O)c2ccc(C(=O)N[C@@H]3CNC[C@H]3NC(=O)c3ccncc3)cc2)c1 [Example A98]
Ans. 5.00

Qu. // query pEC50 value for entry COc1ccc(O)c(C(O)c2ccc(C(=O)N[C@@H]3CNC[C@H]3NC(=O)c3ccncc3)cc2)c1F (some centres unmarked) [Example A59]
Ans. 5.15

Qu. // query pEC50 value for entry O=C(N[C@@H]1CNC[C@H]1NC(=O)c1ccc(C(=O)c2cc(OCc3ccccc3)ccc2O)cc1)c1ccncc1 [Example A97]
Ans. 4.95

Qu. // query pEC50 value for entry COc1cc(C(=O)c2ccccc2O)ccc1C(=O)N[C@@H]1CNC[C@H]1NC(=O)c1ccncc1 [Example A69]
Ans. 6.40

Qu. // query pEC50 value for entry Cc1ccc(C(=O)c2ccc(C(=O)N[C@@H]3CNC[C@H]3NC(=O)c3ccncc3)cc2)c(O)c1 [Example A81]
Ans. 5.28

Qu. // query pEC50 value for entry COc1ccc(O)c(C(=O)c2ccc(C(=O)N[C@@H]3CCC[C@H]3NC(=O)c3ccncc3)cc2)c1F [Example A18]
Ans. 5.18

Qu. // query pEC50 value for entry COc1ccc(O)c(C(=O)c2ccc(C(=O)N[C@@H]3CNC[C@H]3NC(=O)c3cccnc3)cc2)c1F [Example A38]
Ans. 5.50

Others:
Qu. // query pEC50 value for entry Nc1nccc(C(=O)N[C@@H]2CNC[C@H]2NC(=O)c2ccc(C(=O)c3c(O)cccc3F)cc2)n1 [Example A50]
Ans. 5.44

Qu. // query pEC50 value for entry COc1ccc(O)c(C(=O)c2ccc(C(=O)N[C@@H]3CNC[C@H]3NC(=O)c3ccc4[nH]nnc4c3)cc2)c1F [Example A58]
Ans. 5.28

Qu. // query pEC50 value for entry COc1ccc(O)c(C(=O)c2ccc(C(=O)O[C@@H]3CCNC[C@H]3NC(=O)c3ccncc3)cc2)c1F [Example A31]
Ans. 5.94

Qu. // query pEC50 value for entry O=C(N[C@@H]1c2ccccc2C[C@H]1NC(=O)c1ccncc1)c1ccc(C(=O)c2ccccc2)cc1 [Example A11]
Ans. 5.25

Qu. // query pEC50 value for entry COc1ccc(O)c(C(=O)c2ccc(C(=O)N[C@@H]3CNC[C@H]3NC(=O)c3cn[nH]c3)cc2)c1F [Example A43]
Ans. 5.51
